Test system: CYP1A2
Experiment: Metabolic stability in human liver microsomes with or without CYP1A2 inhibitor furafylline
Conditions: human, microsomes, pH 7.4, t½, 1 µM substrate, plus 10 µM furafylline
Observation Type: half-life at 1 µM (h)
Your answer should be a plain number; it is taken to be in h.

Task item: Fill blank: measured half-life at 1 µM of the compound COC(=O)Nc1nc2cc(C(=O)c3ccc(F)cc3)ccc2[nH]1 is ____.
Reply: 6.57

* * *

Test system: CYP1A2
Assay: Stability in human cryopreserved hepatocytes with or without CYP1A2 inhibitors (assays 1 to 3)
Conditions: human, hepatocytes, CLint, assay 3, mexiletine 300 µM
Observation Type: hepatocyte CLint at 1 µM (µL/min/1e6 cells)
Your answer should be a plain number; it is taken to be in µL/min/1e6 cells.

Task item: Could you share what hepatocyte CLint at 1 µM was measured for COC(=O)Nc1nc2cc(C(=O)c3ccc(F)cc3)ccc2[nH]1 , tested on CYP1A2?
Reply: 5.85
